Would you mind telling me the reported melting point of each entry?

O=C(c1ccc(CNc2nc(-c3ccccc3)nc3ccccc23)cc1)N1CCN(c2ncc(Cc3ccccc3)cn2)CC1 [Compound 24]    216 to 217 °C
CCc1cnc(N2CCN(c3ncnc4ccccc34)CC2)nc1 [Compound 3]    > 250 °C
CCc1cnc(N2CCN(C(=O)c3ccc(Nc4ncnc5ccccc45)cc3)CC2)nc1 [Compound 14]    248 to 249 °C
CCc1cnc(N2CCN(C(=O)c3ccccc3NC3=c4ccccc4=NCN3c3ccccc3)CC2)nc1 [Compound 19]    204 to 205 °C
O=C(c1ccc(Nc2ncnc3ccccc23)cc1)N1CCN(c2ncc(Cc3ccccc3)cn2)CC1 [Compound 17]    245 to 247 °C
CCc1cnc(N2CCN(C(=O)c3cccc(Nc4ncnc5ccccc45)c3)CC2)nc1 [Compound 13]    146 to 147 °C
O=C(c1cccc(Nc2nc(-c3ccccc3)nc3ccccc23)c1)N1CCN(c2ncc(Cc3ccccc3)cn2)CC1 [Compound 22]    214 to 215 °C
O=C(c1ccc(Nc2nc(-c3ccccc3)nc3ccccc23)cc1)N1CCN(c2ncc(Cc3ccccc3)cn2)CC1 [Compound 23]    > 250 °C

List the reported melting point of each compound below.
1. O=C(c1ccc(CNc2ncnc3ccccc23)cc1)N1CCN(c2ncc(Cc3ccccc3)cn2)CC1 [Compound 18]
2. CCc1cnc(N2CCN(C(=O)c3ccccc3NC3(c4ccccc4)NC=Nc4ccccc43)CC2)nc1 (stereo not shown) [Compound 20]
3. c1ccc(Cc2cnc(N3CCN(c4nc(-c5ccccc5)nc5ccccc45)CC3)nc2)cc1 [Compound 6]
4. CCc1cnc(N2CCN(c3nc(-c4ccccc4)nc4ccccc34)CC2)nc1 [Compound 5]
5. CCc1cnc(N2CCN(C(=O)c3ccc(CNc4nc(-c5ccccc5)nc5ccccc45)cc3)CC2)nc1 [Compound 21]

1: 99 to 101 °C; 2: > 250 °C; 3: 135 to 137 °C; 4: 137 to 138 °C; 5: 207 to 208 °C
